test: LC/MS quantification of serum fexaramine after PO or IP administration; type: in vivo, mice; details: acute 100 mg/kg, PO compared to IP
observable: serum Fex level after PO relative to IP levels (%)
# number only, unit % dropped from output

Look up serum Fex level after PO relative to IP levels of COC(=O)/C=C/c1cccc(N(Cc2ccc(-c3ccc(N(C)C)cc3)cc2)C(=O)C2CCCCC2)c1 [Fex, fexaramine] and report it. 10

---

assay: LC/MS quantification of serum fexaramine after PO or IP administration; format: in vivo, mice; settings: mouse, serum; PO 100 mg/kg; read-out: serum levels of Fex after PO administration
observable: concentration at 5 days

Look up concentration at 5 days of COC(=O)/C=C/c1cccc(N(Cc2ccc(-c3ccc(N(C)C)cc3)cc2)C(=O)C2CCCCC2)c1 and report it. < 25 nM
